- subject.of.test: first (BD1: amino acids K57-E168) bromodomain of BRD4 (Homo sapiens, UniProt O60885)
- Construct: His-tagged first (BD1: amino acids K57-E168)
- procedure.details: TR-FRET bromodomain binding assay, BRD4 BD1
- settings: TR-FRET assay protocol (D, E or G) per compound; Ki calculated from IC50, probe Kd and probe concentration; read-out: TR-FRET Binding Ki: BRD4 (BDI_K57-E168)
- Procedure: A time-resolved fluorescence resonance energy transfer (TR-FRET) assay was used to determine the affinities of compounds of the Examples listed in Table 1 for each bromodomain of BRD4. […] TR-FRET data were normalized to the means of 24 no-compound controls (“high”) and 8 controls containing 1 μM un-labeled probe (“low”). […] Inhibition constants (Ki) were calculated from the IC50s, probe Kd and probe concentration. […]
pKi: −log10 of the molar value.
Everything with pKi lower than 7 is Not met; everything else, including exactly 7, is Met.

INSERT INTO results (cpd_smiles, subject_of_test, class_label) VALUES
  ('CCS(=O)(=O)Nc1ccc(Oc2ccc(F)cc2F)c(-c2cn(C)c(=O)cc2OCC2CCNCC2)c1', 'first (BD1: amino acids K57-E168) bromodomain of BRD4 (Homo sapiens, UniProt O60885)', 'Met'),
  ('CCOC(=O)N1CCC(Oc2ccc(NS(=O)(=O)CC)cc2-c2cn(C)c(=O)cc2OCC)CC1', 'first (BD1: amino acids K57-E168) bromodomain of BRD4 (Homo sapiens, UniProt O60885)', 'Not met'),
  ('CCOc1cc(=O)n(C)cc1-c1cc(N(C)S(=O)(=O)Cc2ccccc2)ccc1Oc1ccc(F)cc1F', 'first (BD1: amino acids K57-E168) bromodomain of BRD4 (Homo sapiens, UniProt O60885)', 'Not met'),
  ('CCOc1cc(=O)n(C)cc1-c1cc(NS(=O)(=O)CC)ccc1Oc1ccc(Cl)cc1', 'first (BD1: amino acids K57-E168) bromodomain of BRD4 (Homo sapiens, UniProt O60885)', 'Met'),
  ('CCOc1cc(=O)n(C)cc1-c1cc(NS(=O)(=O)CC)ccc1Oc1cccnc1', 'first (BD1: amino acids K57-E168) bromodomain of BRD4 (Homo sapiens, UniProt O60885)', 'Met'),
  ('CCS(=O)(=O)Nc1ccc(Oc2ccc(F)cc2F)c(-c2cn(C)c(=O)cc2-c2ccco2)c1', 'first (BD1: amino acids K57-E168) bromodomain of BRD4 (Homo sapiens, UniProt O60885)', 'Met'),
  ('CCOc1cc(=O)n(C)cc1-c1cc(NS(=O)(=O)CC)ccc1OC1CCC(F)(F)CC1', 'first (BD1: amino acids K57-E168) bromodomain of BRD4 (Homo sapiens, UniProt O60885)', 'Met'),
  ('CCOc1cc(=O)n(C)cc1-c1cc(NC(=O)c2ccccn2)ccc1Oc1ccc(F)cc1F', 'first (BD1: amino acids K57-E168) bromodomain of BRD4 (Homo sapiens, UniProt O60885)', 'Met'),
  ('CCS(=O)(=O)Nc1ccc(Oc2ccc(F)cc2F)c(-c2cn(C)c(=O)cc2-c2cnn(CC(C)C)c2)c1', 'first (BD1: amino acids K57-E168) bromodomain of BRD4 (Homo sapiens, UniProt O60885)', 'Met'),
  ('CCOc1cc(=O)n(C)cc1-c1cc(NS(=O)(=O)CC)ccc1Oc1c(F)cc(Cl)cc1F', 'first (BD1: amino acids K57-E168) bromodomain of BRD4 (Homo sapiens, UniProt O60885)', 'Met');
